B1: library; numbered along this chain (parent)
chain: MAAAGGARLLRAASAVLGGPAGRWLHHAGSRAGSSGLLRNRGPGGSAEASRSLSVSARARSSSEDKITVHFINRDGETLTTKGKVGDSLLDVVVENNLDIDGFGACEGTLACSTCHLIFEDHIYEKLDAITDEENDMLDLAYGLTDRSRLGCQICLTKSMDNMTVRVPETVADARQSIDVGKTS

# Variants of: B1
# Test details: scaled log2 fold change in cell abundance, elesclomol vs control (0 = silent mean, 1 = nonsense mean) (scaled log2 ratio); higher = higher viability under elesclomol (loss of FDX1 cuproptosis function);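 note: variant abundance is its share of total variant reads in each endpoint sample, from next-generation sequencing of the integrated ORF PCR-amplified out of genomic DNA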
# Details: with HEK293T FDX1 KO; elesclomol 40 nM; glucose 10 mM; 11 days
Property: scaled log2 fold change
Answer as a number with no unit attached.

I154P; 0.814
I154S; 0.0924
A4Y; 0.669
K126H; 0.114
I100Q; 0.874

Reported scaled log2 fold change for A21D was -0.0523

Reported scaled log2 fold change for G5A was 0.164

Reported scaled log2 fold change for D91M was -1.37

Reported scaled log2 fold change for S184T was -0.512

Reported scaled log2 fold change for I118W was 0.474

Reported scaled log2 fold change for V69A was 0.807

Reported scaled log2 fold change for D101M was 0.684

Reported scaled log2 fold change for S61W was 0.846

Reported scaled log2 fold change for L53C was -0.0888

Reported scaled log2 fold change for L144W was -0.217

Reported scaled log2 fold change for D179L was 1.12
